Biological target: NEK6 (human)
Experiment: radiometric filter-binding kinase assay
Conditions: compound 10.0 µM
MEASURED PROPERTY: residual activity (%)

1. CCOC(=O)c1ccc(N2NC(=O)/C(=C/c3ccc([N+](=O)[O-])o3)C2=O)cc1 = 106
2. N#Cc1c(C2CCNCC2)cc(-c2c(O)cccc2OCC2CC2)nc1N = 101
3. CC1=C(CO)C(=O)O[C@@H]([C@@H](C)[C@H]2CC[C@H]3[C@@H]4C[C@H]5O[C@]56[C@@H](O)C=CC(=O)[C@]6(C)C4CC[C@]23C)C1 (stereo not given in full) = 111
4. Cc1cccc(Nc2nn(C)c3ncnc(N)c23)c1 = 81
5. Cc1ccc(=O)n(-c2ccccc2)c1 = 91
6. CCn1c(-c2nonc2N)nc2cncc(CNC3CCNCC3)c21 = 102
7. CCNc1nc(Nc2cc(F)c(C(=O)N3CCOCC3)cc2OC)ncc1C(F)(F)F = 84
8. O=C(O)c1cc(N=Nc2ccc(S(=O)(=O)Nc3ccccn3)cc2)ccc1O = 97
9. NC1(c2ccc(-c3nc4ccn5c(=O)[nH]nc5c4cc3-c3ccccc3)cc2)CCC1 = 90
10. Cc1ccc2c(c1)C(=O)[C@@]1(O)CCN(c3ccccc3)C1=N2 = 107

====

Molecular target: MARK4 (human) (UniProt Q96L34)
Sequence (Q96L34 whole entry, looked up): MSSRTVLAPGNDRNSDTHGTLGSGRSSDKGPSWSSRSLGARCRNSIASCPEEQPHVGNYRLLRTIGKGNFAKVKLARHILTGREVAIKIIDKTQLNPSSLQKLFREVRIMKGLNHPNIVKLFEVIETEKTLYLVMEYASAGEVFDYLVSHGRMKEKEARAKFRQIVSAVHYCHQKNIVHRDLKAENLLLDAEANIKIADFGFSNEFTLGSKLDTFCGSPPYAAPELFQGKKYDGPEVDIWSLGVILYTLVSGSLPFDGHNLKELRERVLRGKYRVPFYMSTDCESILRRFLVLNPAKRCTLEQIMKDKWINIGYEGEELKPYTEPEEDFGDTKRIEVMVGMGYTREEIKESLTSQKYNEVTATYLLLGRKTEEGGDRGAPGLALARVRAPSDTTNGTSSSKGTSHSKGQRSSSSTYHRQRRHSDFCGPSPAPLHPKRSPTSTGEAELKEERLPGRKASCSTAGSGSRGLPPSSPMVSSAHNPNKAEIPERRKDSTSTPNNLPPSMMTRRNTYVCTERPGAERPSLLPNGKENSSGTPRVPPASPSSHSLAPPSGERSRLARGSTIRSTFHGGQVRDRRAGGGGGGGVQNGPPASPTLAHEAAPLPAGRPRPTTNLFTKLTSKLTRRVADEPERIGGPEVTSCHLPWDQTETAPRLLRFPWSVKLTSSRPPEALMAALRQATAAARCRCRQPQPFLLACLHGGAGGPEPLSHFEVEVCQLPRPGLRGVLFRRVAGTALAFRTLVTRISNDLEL
Assay: radiometric filter-binding kinase assay
Conditions: compound 1.0 µM
MEASURED PROPERTY: residual activity (%)

1. O=C(N[C@@H](COc1ccc2[nH]c(=O)[nH]c2c1)c1ccccc1)c1cccn(Cc2ccc(F)c(F)c2)c1=O = 143
2. NCC(=O)Nc1ccc(-n2nc(C(F)(F)F)cc2-c2ccc3c(ccc4ccccc43)c2)cc1 = 88
3. O=C(NOC[C@H](O)CO)c1ccc(F)c(F)c1Nc1ccc(I)cc1Cl = 112
4. COc1cc(C(=O)N2CCOCC2)c(F)cc1Nc1ncc(C(F)(F)F)c(NC2CC2)n1 = 95
5. NC1(c2ccc(-c3nc4ccn5c(=O)[nH]nc5c4cc3-c3ccccc3)cc2)CCC1 = 102
6. FC(F)(F)c1ccc(-c2ccc(Oc3cncc4sc(-c5nn[nH]n5)cc34)cc2)cc1 = 106
7. O=C(NCCCNc1nc(Nc2cccc(CN3CCOCC3)c2)ncc1C1CC1)C1CCC1 = 29
8. CC(C)(C#N)c1ccc(N2C(=O)OCc3cnc4ccc(-c5cnc6ccccc6c5)cc4c32)cc1 = 100
9. N#Cc1c(C2CCNCC2)cc(-c2c(O)cccc2OCC2CC2)nc1N = 115
10. C=C1C(=O)OC2C1CC/C(C)=C/CCC1(C)OC21 (stereo unspecified) = 111

P: CN1C(=O)[C@@H](Cc2c[nH]c3ccccc23)NC1=S
Q: CNC(=O)C1[C@H]2O[C@@](C)([C@@H]1N)n1c3ccccc3c3c4c(c5c6ccccc6n2c5c31)C(=O)NC4 (stereo partly specified)
Qu. Could you kindly indicate whether P or Q has the higher residual activity value? Provide the label of your selected option as the answer.
Ans. P
(P: 98%, Q: 1%)

====

Target: IKBKE (human) (UniProt Q14164)
Sequence (Q14164 whole entry, looked up): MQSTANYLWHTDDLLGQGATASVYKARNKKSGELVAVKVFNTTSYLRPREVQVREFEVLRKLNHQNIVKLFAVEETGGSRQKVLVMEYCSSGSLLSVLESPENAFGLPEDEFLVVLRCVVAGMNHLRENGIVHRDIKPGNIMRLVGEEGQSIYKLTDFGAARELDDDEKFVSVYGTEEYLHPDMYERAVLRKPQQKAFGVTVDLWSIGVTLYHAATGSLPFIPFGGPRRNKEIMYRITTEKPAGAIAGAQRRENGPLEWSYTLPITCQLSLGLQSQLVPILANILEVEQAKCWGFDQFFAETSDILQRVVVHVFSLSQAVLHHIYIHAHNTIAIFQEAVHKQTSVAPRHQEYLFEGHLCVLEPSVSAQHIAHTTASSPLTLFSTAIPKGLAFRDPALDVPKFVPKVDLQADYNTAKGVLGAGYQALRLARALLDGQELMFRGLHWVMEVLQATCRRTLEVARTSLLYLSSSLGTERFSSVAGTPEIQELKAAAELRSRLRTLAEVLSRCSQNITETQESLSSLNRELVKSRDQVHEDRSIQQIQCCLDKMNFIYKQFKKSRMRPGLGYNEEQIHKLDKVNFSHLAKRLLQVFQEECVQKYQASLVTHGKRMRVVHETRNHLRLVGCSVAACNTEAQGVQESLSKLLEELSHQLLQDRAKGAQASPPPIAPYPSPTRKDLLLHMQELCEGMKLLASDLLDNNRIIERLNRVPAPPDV
Experiment: radiometric filter-binding kinase assay
Conditions: compound 1.0 µM
MEASURED PROPERTY: residual activity (%)

Please review the entries below; each comes with its answer.
1) O=C(NCCCNc1nc(Nc2cccc(CN3CCOCC3)c2)ncc1C1CC1)C1CCC1 = 23
2) O=C1NC(=S)N[C@@H]1Cc1c[nH]c2ccccc12 = 84
3) Cc1cccc(-c2nn(C(=S)Nc3ccccc3)cc2-c2ccnc3ccccc23)n1 = 106

a: NC(=O)c1cc(-c2ccnc(NC3CCCCC3)c2)nc(N2CCNCC2)c1
b: NC(=O)Nc1ccc2c(c1)/C(=C/c1cc(-c3cccnc3)c[nH]1)C(=O)N2
Qu. From the items above, decide which of a and b has the lower residual activity reading. Provide the label of your selected option as the answer.
Ans. b
(b: 12%, a: 87%)
